# Assay Info: Stability of the compound in stimulated intestinal fluid assessed as half life at pH 6.5
# Type: ADME
# Conditions Used: simulated intestinal fluid
Where a SMILES comes first, the peptide text is derived from it. Bridges are numbered along the chain shown (N, C = ends).
Reported Endpoint: half-life (h)
Response body: numeric value in h, unit text excluded.

# input For CC(C)C[C@H](NC(=O)[C@@H]1CSSC[C@H](NC(=O)[C@@H](N)Cc2ccc(O)cc2)C(=O)N[C@@H](Cc2ccc(O)cc2)C(=O)N2CCC[C@H]2C(=O)N[C@@H](C(C)C)C(=O)N2CCC[C@H]2C(=O)N[C@@H](Cc2ccc(O)cc2)C(=O)N2CCC[C@H]2C(=O)N2CCC[C@H]2C(=O)N[C@@H](Cc2ccccc2)C(=O)N[C@@H](Cc2ccccc2)C(=O)N[C@@H](CC(C)C)C(=O)N1)C(=O)N[C@@H](Cc1ccccc1)C(=O)N[C@@H](CC(N)=O)C(=O)O (H-YCYPVPYPPFFLCLFN-OH; disulfide 2-13) , what is its reported half-life?
# output 20.4
